Data credit: the supplement of paper PMC9262897

Test system: E. coli TESEC Mtb Alr
Assay: growth (OD600 after 10 h); higher = more growth (less inhibition)
Settings: arabinose 100 nM; compound 0.1 mM; raw OD600 reference: median of DMSO wells 0.413, cell-free background 0.052
Where a name gives a salt, the structure may show the parent alone.
READOUT TYPE: growth
Numbers only.

Some solved entries appear below for comparison.
Reported growth ( OC[C@H]1O[C@@H](Oc2ccc(O)cc2)[C@H](O)[C@@H](O)[C@@H]1O [Arbutin] ) = 0.403

Reported growth ( C[C@@H](O[C@H]1OCCN(Cc2n[nH]c(=O)[nH]2)[C@H]1c1ccc(F)cc1)c1cc(C(F)(F)F)cc(C(F)(F)F)c1 [Aprepitant] ) = 0.442

Reported growth ( CN(CCOc1ccc(CC2SC(=O)NC2=O)cc1)c1ccccn1 (centres undefined) [Rosiglitazone Hydrochloride] ) = 0.266

Reported growth ( CCCOc1cc(N)ccc1C(=O)OCCN(CC)CC [Propoxycaine hydrochloride] ) = 0.41

Reported growth ( Cc1c(O)c(=O)n(-c2ccccc2)n1C [Antipyrine, 4-hydroxy] ) = 0.405

Reported growth ( COc1c2occc2c(OC)c2c(=O)cc(C)oc12 [Khellin] ) = 0.396

Reported growth ( CC1(C)S[C@@H]2[C@H](NC(=O)[C@H](N)c3ccccc3)C(=O)N2[C@H]1C(=O)O [Ampicillin trihydrate] ) = 0.427

Reported growth ( C/C(=C(\CCOP(=O)(O)O)SC(=O)c1ccccc1)N(C=O)Cc1cnc(C)nc1N [Benfotiamine] ) = 0.404

Look up growth for the entries below, preserving their order.
1. CNCC[C@@H](Oc1cccc2ccccc12)c1cccs1 [(R)-Duloxetine hydrochloride]
2. CCCCc1cc2ccccc2c(OCCN(C)C)n1 [Dimethisoquin hydrochloride]
3. Nc1ccc(C(=O)NCC(=O)O)cc1 [Aminohippuric acid]
4. Cc1c(NC(C)C)c(=O)n(-c2ccccc2)n1C [Isopyrin hydrochloride]
5. COc1ccc(CN2CCN(C(c3ccc(F)cc3)c3ccc(F)cc3)CC2)c(OC)c1OC [Lomerizine hydrochloride]
6. Nc1nc(=O)n([C@@H]2CS[C@H](CO)O2)cc1F [(-)-Emtricitabine]

0.41
0.398
0.408
0.393
0.248
0.412

* * *

Please respond with reported growth for every item in the list.
System: E. coli TESEC Mtb Alr
Experiment: growth (OD600 after 10 h); higher = more growth (less inhibition)
Settings: arabinose 100000 nM; compound 0.1 mM; raw OD600 reference: median of DMSO wells 0.201, cell-free background 0.041
Counter-ions that a name gives are not always drawn.
Answers are plain numbers.

Reported growth ( COc1cc(C(=O)NC2CCCNC2)cc(OC)c1OC (centres undefined) [Troxipide] ) = 0.205

Reported growth ( O=C(O)CCc1nc(-c2ccccc2)c(-c2ccccc2)o1 [Oxaprozin] ) = 0.102

Reported growth ( CN1CCC(=C2c3ccccc3CCc3sccc32)CC1 [Pizotifen malate] ) = 0.0952

Reported growth ( CCOC(=O)C1=C(C)NC(C)=C(C(=O)OCC)C1c1ccccc1/C=C/C(=O)OC(C)(C)C [Lacidipine] ) = 0.201

Look up growth for the entries below, preserving their order.
1. COC(=O)Nc1nc2cc(C(=O)c3ccc(F)cc3)ccc2[nH]1 [Flubendazol]
2. CC/C(=C(\c1ccccc1)c1ccc(OCCN(C)C)cc1)c1ccccc1 [Tamoxifen citrate]

1. 0.197
2. 0.0466

Look up growth for the entries below, preserving their order.
1. CCCCNc1cc(C(=O)O)cc(S(N)(=O)=O)c1Oc1ccccc1 [Bumetanide]
2. CC(NCCC(c1ccccc1)c1ccccc1)c1ccccc1 (centres undefined) [Fendiline hydrochloride]
3. C[C@]12CCC(=O)C=C1CC[C@@H]1[C@@H]2C(=O)C[C@@]2(C)[C@H]1CC[C@]2(O)C(=O)CO [Cortisone]

1. 0.167
2. 0.0416
3. 0.176
